system: GC3/MTK-; experiment: Inhibitory activity of compound against growth of thymidine kinase-deficient human adenocarcinoma cell line (GC3/M TK-) in tissue culture; format: functional
Recorded Inhibition for the following compounds
Please reply with the bare figure in % and do not write the unit itself.

- C#CCN(Cc1ccc2nc(C)nc(O)c2c1)c1ccc(C#N)c(Cl)c1: 25
- C#CCN(Cc1ccc2nc(C)nc(O)c2c1)c1ccccc1: 24
- C#CCN(Cc1ccc2nc(C)nc(O)c2c1)c1cccc(C)c1: 34
- C#CCN(Cc1ccc2nc(C)nc(O)c2c1)c1cccc(CC)c1: 20

Lab note: next compound to report on.
Returns the measured Inhibition for the input compound. Input: `C#CCN(Cc1ccc2nc(C)nc(O)c2c1)c1cccc(C(F)(F)F)c1`
25
